Catalogue of IC50 readings, one per entry.
targetOrSystem: recombinant SARS-CoV-2 RBD with C-terminal AviTag (SARS-CoV-2, UniProt P0DTC2 319-541)
procedureDetails: ELISA, competition with coated ACE2-Fc for RBD [Cont. 9]
readout: IC50 (nM)

* PP1104 MBP-5HVZ-PAPA-RN-19-H6 (VHH, Form: Dimer) VHH: QVQLVESGGGLVQPGGSLRLSCAASGIDDSIGAMHWFRQAPGKGREFVAALSGTGTTSYADSVKGRFTISRDNAKNTVYLQMNSLKPEDTAVYYCAAAFPAGGDYWGQGTQVTVSS | 3.5
* PP1101 MBP-5HVZ-PAPA-RN-16-H6 (VHH, Form: Dimer) VHH: QVQLVESGGGLVQPGGSLRLSCAASGADFSSNAMHWFRQAPGKAREFVASIDSDKSGYYADSVKGRFTISRDNAKNTVYLQMNSLKPEDTAVYYCNAYSGTDNYGYDYWGQGTQVTVSS | 13.9
* PP1105 MBP-5HVZ-PAPA-RN-20-H6 (VHH, Form: Dimer) VHH: QVQLVESGGGLVQPGGSLRLSCAASGNYFEINKMHWFRQAPGKQREFVATIGSGGSTAYADSVKGRFTISRDNAKNTVYLQMNSLKPEDTAVYYCNALIYLADRRDGYYSYDYWGQGTQVTVSS | 7.2
* PP1113 MBP-5HVZ-PAPA-RN-29-H6 (VHH, Form: Dimer) VHH: QVQLVESGGGLVQPGGSLRLSCAASGYILSENLTAWFRQAPGKAREVVATVTSGDYTNYDDSVKGRFTISRDNAKNTVYLQMNSLKPEDTAVYYCAAGTSDWEVKWSHWGQGTQVTVSS | 4.9
